EXPERIMENT: Equilibrium solubility at varying pH (shake flask)
Type: physicochemical
PARTICULARS: aqueous buffer (0.1N HCl), 25 °C, pH 1.2, simulated gastric fluid, thermodynamic from solid
ENDPOINT LABEL: solubility (µg/mL)
Record the value in µg/mL, omitting the unit from your answer.

Problem: Could you tell me which solubility is on file for Cn1ccc(S(=O)(=O)N2CCC[C@@H](Nc3nccc(-c4c(-c5cccc(O)c5)nc5occn45)n3)C2)n1 [Compound 17] ?
Result: 1050

* * *

Test system: DLD-1
EXPERIMENT: Cell growth inhibition assay (MTS)
Assay type: cell-based
PARTICULARS: Homo sapiens; DLD-1, 72 hours
ENDPOINT LABEL: GI50 (µM)

P. Cn1ccc(S(=O)(=O)N2CCC(Nc3nccc(-c4c(-c5cccc(O)c5)nc5occn45)n3)CC2)n1
Q. O=S(=O)(C1CC1)N1CCC(Nc2nccc(-c3c(-c4cccc(O)c4)nc4occn34)n2)CC1
R. O=S(=O)(c1ccc(Cl)cc1)N1CCC(Nc2nccc(-c3c(-c4cccc(O)c4)nc4sccn34)n2)CC1
Problem: Lab note: rank above entries, GI50 ascending. Give the labels in the order specified.
Result: R, P, Q

* * *

Test system: RKO
EXPERIMENT: Cell growth inhibition assay (MTS)
Type: cell-based
PARTICULARS: Homo sapiens, 72 hours
ENDPOINT LABEL: GI50 (nM)
All answers are understood in nM, so give the number only.

The following compounds have reported results that may help.
O=S(=O)(C1CC1)N1CCC(Nc2nccc(-c3c(-c4cccc(O)c4)nc4occn34)n2)CC1 :: 323
O=S(=O)(c1ccc(Cl)cc1)N1CCC[C@@H](Nc2nccc(-c3c(-c4cccc(O)c4)nc4occn34)n2)C1 :: 1810

Next, consider the following compound.
Problem: Which value of GI50 has been reported for O=S(=O)(c1ccc(Cl)cc1)N1CCC(Nc2nccc(-c3c(-c4cccc(O)c4)nc4sccn34)n2)CC1 in the records?
Result: 85

* * *

STUDY SYSTEM: mutant B-RAF (Homo sapiens, UniProt P15056, V600E)
Construct: purchased Upstate (Charlottesville, Va.)
Sequence (P15056 whole entry V600E): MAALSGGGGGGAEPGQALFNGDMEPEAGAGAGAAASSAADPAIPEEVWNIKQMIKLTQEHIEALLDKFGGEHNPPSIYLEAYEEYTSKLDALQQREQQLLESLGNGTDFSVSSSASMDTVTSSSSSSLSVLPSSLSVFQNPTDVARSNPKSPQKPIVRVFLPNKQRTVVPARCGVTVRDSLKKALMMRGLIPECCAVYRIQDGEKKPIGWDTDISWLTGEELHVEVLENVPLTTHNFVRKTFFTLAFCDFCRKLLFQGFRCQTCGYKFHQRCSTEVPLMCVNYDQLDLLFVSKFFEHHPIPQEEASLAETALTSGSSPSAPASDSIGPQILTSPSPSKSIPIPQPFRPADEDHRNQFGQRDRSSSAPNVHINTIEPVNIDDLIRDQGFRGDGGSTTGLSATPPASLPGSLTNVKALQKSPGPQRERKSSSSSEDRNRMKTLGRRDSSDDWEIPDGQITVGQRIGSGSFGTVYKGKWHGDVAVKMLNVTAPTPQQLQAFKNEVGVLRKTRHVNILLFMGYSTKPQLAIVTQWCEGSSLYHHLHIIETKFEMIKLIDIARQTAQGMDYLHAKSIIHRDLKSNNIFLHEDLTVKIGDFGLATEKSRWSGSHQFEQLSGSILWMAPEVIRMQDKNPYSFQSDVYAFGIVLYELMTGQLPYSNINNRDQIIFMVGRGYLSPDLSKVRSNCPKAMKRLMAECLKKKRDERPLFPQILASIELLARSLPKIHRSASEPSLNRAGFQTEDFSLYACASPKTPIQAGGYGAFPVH
EXPERIMENT: Measurement of RAF activity (MEK-1 phosphorylation)
Format: biochemical
PARTICULARS: 50 μM ATP, MEK-1 substrate; read-out: Mut-B-Raf IC50
pIC50: −log10 of the molar value.
ENDPOINT LABEL: pIC50

Worked cases, answers included:
Cn1ccc(S(=O)(=O)N2CCC[C@@H](Nc3nccc(-c4c(-c5cccc(OCOP(=O)(O)O)c5)nc5sccn45)n3)C2)n1 :: 5.94
Cn1ccc(S(=O)(=O)N2CCC(Nc3nccc(-c4c(-c5cccc(OCOP(=O)(O)O)c5)nc5occn45)n3)CC2)n1 :: 5.94
Cn1ccc(S(=O)(=O)N2CCC[C@@H](Nc3nccc(-c4c(-c5cccc(O)c5)nc5sccn45)n3)C2)n1 :: 8.22

I. O=P(O)(O)OCOc1cccc(-c2nc3occn3c2-c2ccnc(N[C@@H]3CCCN(S(=O)(=O)c4ccc(Cl)cc4)C3)n2)c1
II. Cn1ccc(S(=O)(=O)N2CCC(Nc3nccc(-c4c(-c5cccc(O)c5)nc5occn45)n3)CC2)n1
III. O=S(=O)(c1ccc(Cl)cc1)N1CCC(Nc2nccc(-c3c(-c4cccc(O)c4)nc4sccn34)n2)CC1
Problem: Reorder the items by pIC50, least to greatest. Answer with the labels in sequence, matching the requested order.
Result: I, II, III

Data provenance: patent US20100183600A1
